Attribution: patent US20200317768A1

In this section we review reported Kd values for a set of binders.
- target-under-test: T1, Human latent myostatin (human, UniProt O14793 25-266; O14793 267-375)
- T1 construct: also called human myostatin latent form
- T1 sequence 1: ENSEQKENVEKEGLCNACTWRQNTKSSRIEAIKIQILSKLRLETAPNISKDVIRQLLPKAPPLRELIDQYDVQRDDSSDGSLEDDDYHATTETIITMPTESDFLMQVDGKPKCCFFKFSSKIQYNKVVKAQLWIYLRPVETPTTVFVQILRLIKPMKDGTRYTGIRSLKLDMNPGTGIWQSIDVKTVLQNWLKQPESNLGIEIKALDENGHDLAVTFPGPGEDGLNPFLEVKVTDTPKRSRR
- T1 sequence 2: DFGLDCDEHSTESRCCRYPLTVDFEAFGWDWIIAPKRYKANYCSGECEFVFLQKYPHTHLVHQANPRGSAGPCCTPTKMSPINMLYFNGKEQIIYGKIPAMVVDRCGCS
- experiment-notes: SPR (BIACORE T200) 37C, pH 7.4, antibody captured by ProA/G
Note: unit nM is implicit; provide only the numeric part.

| binder | metric | units | reported-measurement |
| --- | --- | --- | --- |
| MS_M103240H1246-SG1/M103202L1045-SK1 (antibody, human IgG1, kappa, V domains shown, also called MS1032LO25-SG1) VH: QVQLVESGGGLVQPGGSLRLSCAVSGIDLSHEDISWVRQAPGKGLEWVSIISYAGSKYYASWAKGRLTISKDTSKNQVVLTMTNMDPVDTATYYCARGVPAYSHGGDLWGQGTLVTVSS VL: DIVMTQSPATLSLSPGERATLSCTTSQSVYHENWLSWFQQKPGQPPKLLIYWASTLAYGVPSRFSGSGSGTDFTLTISSLQPEDAATYYCAGGYGGGRYAFGQGTKVEIKR | Kd | nM | 0.276 |

API: the following record is the query input.
Entry MS_M103245H795-SG1/M103202L1045-SK1 (antibody, human IgG1, kappa, V domains shown, also called MS1032LO21-SG1) VH: QVTLKESGPVLVKPTETLTLTCKVSGIDLSHDDISWVRQAPGKGLEWVSIISYAGSTYYASWAKGRLTISKDTSKNQVVLTMTNMDPVDTATYYCARGVPAYSHGGDLWGQGTLVTVSS VL: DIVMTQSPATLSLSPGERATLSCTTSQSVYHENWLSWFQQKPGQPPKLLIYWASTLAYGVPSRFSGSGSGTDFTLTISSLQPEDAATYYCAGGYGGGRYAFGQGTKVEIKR has what Kd?
0.257
